System: U2OS
Assay: Multiplex assay against U2OS
Assay type: toxicity, cell-based
Settings: human, 48 h, 1 µM, compound concentration 1 uM, replicate 2
Lab note: compare Population Apoptotic (%) against 60%. Equal or greater, write 1. Smaller, write -1.

Example cases with answers are listed next.
1) Cl.O=C(O)c1cc(-c2ccc(C3CCNCC3)cc2)c2ccc(-c3ccc(C(F)(F)F)cc3)cc2c1	-1
2) CCc1nn(CCCN2CCN(c3cccc(Cl)c3)CC2)c(=O)n1CCOc1ccccc1.Cl [NEFAZODONE HYDROCHLORIDE]	-1
3) COc1ccccc1CN[C@H]1C2CCN(CC2)[C@H]1C(c1ccccc1)c1ccccc1 [CP-96345]	1
4) C[C@]12CC[C@@H]3c4ccc(O)cc4CC[C@H]3[C@@H]1CC[C@@H]2O [ESTRADIOL]	-1
5) Cc1c[nH]c2nccc(Oc3c(F)cc(Nc4cc(Cl)nc(N)n4)cc3F)c12 [BAY-549]	1

Switching to the query record.
Query: Entry CC(C)c1noc(N2CCC(COc3ccc(-c4ccc(S(C)(=O)=O)cc4)nc3)CC2)n1 [GSK-1292263] : is its Population Apoptotic (%) no less than 60%?
Response: -1

====

Tested on: Fibroblast
Assay: Multiplex assay against human fibroblast
Assay type: toxicity, cell-based
Conditions: 48 h, 10 µM, compound concentration 10 uM, replicate 1
parameter: Population Mitotic Cells (%)
Report the figure in % without appending any unit label.

Completed entries (count: 4):
1) Cc1cccc(CN2CCN(C(c3ccccc3)c3ccc(Cl)cc3)CC2)c1.Cl.Cl (centres undefined)	42
2) COc1ccc(-c2ccc3ncc4c(c3c2)n(-c2ccc(N3CCNCC3)c(C(F)(F)F)c2)c(=O)n4C)cn1.O=C(O)/C=C\C(=O)O	33
3) CNC(=O)Nc1ccc(-c2nc(N3CC4CCC(C3)O4)c3cnn(C4CCC5(CC4)OCCO5)c3n2)cc1	50
4) Cc1c[nH]c2nccc(Oc3c(F)cc(Nc4cc(Cl)nc(N)n4)cc3F)c12	20

Looking up CCc1nn(CCCN2CCN(c3cccc(Cl)c3)CC2)c(=O)n1CCOc1ccccc1.Cl [NEFAZODONE HYDROCHLORIDE] , I see its Population Mitotic Cells (%) listed as 14

Looking up COC(=O)C1=C(C)NC(C)=C(C(=O)OCCCN2CCC(c3ccccc3)(c3ccccc3)CC2)[C@H]1c1cccc([N+](=O)[O-])c1 , I see its Population Mitotic Cells (%) listed as 17

Looking up CC(C)NC(=O)N1CC[C@H](NC2=Nc3cc(F)ccc3N(CC(F)F)c3ccc(Cl)cc32)C1 , I see its Population Mitotic Cells (%) listed as 37

Looking up CC1=C(C(=O)Nc2cc3cn[nH]c3cc2F)C(c2ccc(C(F)(F)F)cc2)CC(=O)N1 (centres undefined) , I see its Population Mitotic Cells (%) listed as 53

Looking up COc1cc(Nc2nccc(-c3cnn4nc(OC)ccc34)n2)cc(C(F)(F)F)c1 , I see its Population Mitotic Cells (%) listed as 30

====

Test system: U2OS
Assay: Multiplex assay against U2OS
Type: toxicity, cell-based
Conditions: human, 24 h, 1 µM, compound concentration 1 uM, replicate 1
I'd appreciate it if you marked entries Yes when Population Hoechst High Intensity Objects (%) is lower than 6% and No when it is not.

Example cases with answers are listed next.
1. CC(C)c1noc(N2CCC(COc3ccc(-c4ccc(S(C)(=O)=O)cc4)nc3)CC2)n1	No
2. Cc1ccc(C)c(Oc2ccncc2C(=O)N2CCN(C3CC3)c3ccccc32)c1	Yes
3. Cl.O=C(O)c1cc(-c2ccc(C3CCNCC3)cc2)c2ccc(-c3ccc(C(F)(F)F)cc3)cc2c1	No
4. CC(C)Oc1ccccc1C(=O)Nc1ccccc1C(=O)Nc1cccc(S(=O)(=O)C(F)(F)F)c1	No
5. C=CC(=O)Nc1cccc(Sc2nc(Nc3ccc(N4CCN(C)CC4)cc3)ncc2Cl)c1	No

Switching to the query record.
Query: Does the reported Population Hoechst High Intensity Objects (%) of CCOC(=O)Nc1cc(-c2ccc(C)c(NS(C)(=O)=O)c2)nn2c(C)nnc12 stay below 6%?
Response: Yes

====

Tested on: U2OS
Assay: Multiplex assay against U2OS
Format: toxicity, cell-based
Details: human, 24 h, 1 µM, compound concentration 1 uM, replicate 1
Lab note: compare Total Cell Count against 200. Equal or greater, write t. Smaller, write f.

Example cases with answers are listed next.
1. CNC(=O)Nc1ccc2c(c1)[C@@]1(CC2)OC(=O)N(CC(=O)N(Cc2ccc(F)cc2)[C@@H](C)C(F)(F)F)C1=O	t
2. COc1cc(Nc2nccc(-c3cnn4nc(OC)ccc34)n2)cc(C(F)(F)F)c1	t
3. CC(C)NC(=O)N1CC[C@H](NC2=Nc3cc(F)ccc3N(CC(F)F)c3ccc(Cl)cc32)C1	t
4. CCOC(=O)Nc1cc(-c2ccc(C)c(NS(C)(=O)=O)c2)nn2c(C)nnc12	t
5. COC(=O)C1=C(C)NC(C)=C(C(=O)OCCCN2CCC(c3ccccc3)(c3ccccc3)CC2)[C@H]1c1cccc([N+](=O)[O-])c1	t

Query: Entry Cc1nc(N2CC[C@H](O)C2)ncc1-c1cc(C(F)(F)F)cc2[nH]ncc12 : is its Total Cell Count no less than 200?
Response: t

Query: Entry C=CC(=O)Nc1cccc(Sc2nc(Nc3ccc(N4CCN(C)CC4)cc3)ncc2Cl)c1 : is its Total Cell Count no less than 200?
Response: t

====

Test system: Fibroblast
Assay: Multiplex assay against human fibroblast
Type: toxicity, cell-based
Conditions: 24 h, 10 µM, compound concentration 10 uM, replicate 2
Parameter Population Mitochondria Different-Phenotype (%): see the listing below.
Report the figure in % without appending any unit label.

Looking up CCCSc1nc(N[C@@H]2C[C@H]2c2ccc(F)c(F)c2)c2nnn([C@@H]3C[C@H](OCCO)[C@@H](O)[C@H]3O)c2n1 , I see its Population Mitochondria Different-Phenotype (%) listed as 97

Looking up CCc1nn(CCCN2CCN(c3cccc(Cl)c3)CC2)c(=O)n1CCOc1ccccc1.Cl [NEFAZODONE HYDROCHLORIDE] , I see its Population Mitochondria Different-Phenotype (%) listed as 100

Looking up O=c1cc(N2CCOCC2)oc2c(-c3cccc4c3sc3ccccc34)cccc12 , I see its Population Mitochondria Different-Phenotype (%) listed as 70

Looking up COc1ccccc1CN[C@H]1C2CCN(CC2)[C@H]1C(c1ccccc1)c1ccccc1 , I see its Population Mitochondria Different-Phenotype (%) listed as 31

====

Tested on: HEK-293T
Experiment: Multiplex assay against HEK293T
Assay type: toxicity, cell-based
Settings: human, 48 h, 1 µM, compound concentration 1 uM, replicate 2
I'd appreciate it if you marked entries criterion met when Total Cell Count is lower than 400 and criterion not met when it is not.

Example cases with answers are listed next.
1. Cc1ccccc1C(c1ccccc1C)N1C2CCC1CC(O)(c1ccccc1)C2 (centres undefined)	criterion not met
2. CNC(=O)Nc1ccc(-c2nc(N3CC4CCC(C3)O4)c3cnn(C4CCC5(CC4)OCCO5)c3n2)cc1	criterion met
3. CC(C)c1noc(N2CCC(COc3ccc(-c4ccc(S(C)(=O)=O)cc4)nc3)CC2)n1 [GSK-1292263]	criterion not met
4. COc1cc2ncn(-c3cc(OCc4ccccc4C(F)(F)F)c(C(N)=O)s3)c2cc1OC [GW843682X]	criterion met

Query: Does the reported Total Cell Count of O=C(c1cc2c(cc1F)OC(c1ccc(F)cc1)(c1ccc(Cl)cc1Cl)O2)N1CCOCC1 (centres undefined) stay below 400?
Response: criterion not met

Query: Does the reported Total Cell Count of COc1cc(Nc2nccc(-c3cnn4nc(OC)ccc34)n2)cc(C(F)(F)F)c1 stay below 400?
Response: criterion not met

====

Tested on: Fibroblast
Assay: Multiplex assay against human fibroblast
Format: toxicity, cell-based
Conditions: 48 h, 10 µM, compound concentration 10 uM, replicate 1
parameter: Population Hoechst High Intensity Objects (%)
Report the figure in % without appending any unit label.

Completed entries (count: 3):
1. COc1cc2ncn(-c3cc(OCc4ccccc4C(F)(F)F)c(C(N)=O)s3)c2cc1OC [GW843682X]	19
2. COc1ccccc1CN[C@H]1C2CCN(CC2)[C@H]1C(c1ccccc1)c1ccccc1	25
3. CN1CCN(Cc2ccc(Nc3ncc(Cl)c(Nc4ccccc4S(=O)(=O)N(C)C)n3)cc2)CC1	13

Looking up CC(C)Oc1ccccc1C(=O)Nc1ccccc1C(=O)Nc1cccc(S(=O)(=O)C(F)(F)F)c1 , I see its Population Hoechst High Intensity Objects (%) listed as 10

====

Parameter Total Cell Count: see the listing below.
Tested on: U2OS
Assay: Multiplex assay against U2OS
Format: toxicity, cell-based
Conditions: human, 24 h, 1 µM, compound concentration 1 uM, replicate 2

Completed entries (count: 5):
1) CCc1ccc(OCc2ccccc2C(=O)Nc2ccc3nc(C)cc(N)c3c2)cc1.Cl	92
2) Cc1ccc2c(c1)c1c(n2CCc2ccc(C)nc2)CCN(C)C1 [LATREPIRDINE]	74
3) O=C(c1cc2c(cc1F)OC(c1ccc(F)cc1)(c1ccc(Cl)cc1Cl)O2)N1CCOCC1 (stereo unspecified)	85
4) Cc1c[nH]c2nccc(Oc3c(F)cc(Nc4cc(Cl)nc(N)n4)cc3F)c12	77
5) COC(=O)C1=C(C)NC(C)=C(C(=O)OCCCN2CCC(c3ccccc3)(c3ccccc3)CC2)[C@H]1c1cccc([N+](=O)[O-])c1	948

Looking up Cc1ccccc1C(c1ccccc1C)N1C2CCC1CC(O)(c1ccccc1)C2 (stereo unspecified) , I see its Total Cell Count listed as 89

Looking up COc1cc2ncn(-c3cc(OCc4ccccc4C(F)(F)F)c(C(N)=O)s3)c2cc1OC [GW843682X] , I see its Total Cell Count listed as 85

Looking up C=CC(=O)Nc1cccc(Oc2nc(Nc3ccc(N4CCN(C)CC4)cc3OC)ncc2Cl)c1 , I see its Total Cell Count listed as 131

Looking up Cl.O=C(O)c1cc(-c2ccc(C3CCNCC3)cc2)c2ccc(-c3ccc(C(F)(F)F)cc3)cc2c1 , I see its Total Cell Count listed as 62

Looking up CC1=C(C(=O)Nc2cc3cn[nH]c3cc2F)C(c2ccc(C(F)(F)F)cc2)CC(=O)N1 (stereo unspecified) , I see its Total Cell Count listed as 93

Looking up CNC(=O)Nc1ccc(-c2nc(N3CC4CCC(C3)O4)c3cnn(C4CCC5(CC4)OCCO5)c3n2)cc1 , I see its Total Cell Count listed as 55

Looking up COc1ccccc1CN[C@H]1C2CCN(CC2)[C@H]1C(c1ccccc1)c1ccccc1 , I see its Total Cell Count listed as 114

Looking up Cc1nc(N2CC[C@H](O)C2)ncc1-c1cc(C(F)(F)F)cc2[nH]ncc12 , I see its Total Cell Count listed as 121

Looking up CCCSc1nc(N[C@@H]2C[C@H]2c2ccc(F)c(F)c2)c2nnn([C@@H]3C[C@H](OCCO)[C@@H](O)[C@H]3O)c2n1 , I see its Total Cell Count listed as 81

Looking up CCOC(=O)Nc1cc(-c2ccc(C)c(NS(C)(=O)=O)c2)nn2c(C)nnc12 , I see its Total Cell Count listed as 195

Looking up CC(C)OC(=O)N1CCC(Oc2ncnc3c2cnn3-c2ccc(S(C)(=O)=O)cc2F)CC1 , I see its Total Cell Count listed as 116
